All figures here come from patent US20240124444A1.

# Test system: C. parvum strain UGA1
# assay: C. parvum growth inhibition assay (Nluc luminescence in HCT-8 cells)
# Format: cell-based, Cryptosporidium parvum
# measurement.parameters: Cryptosporidium parvum, HCT-8; single point inhibition @ 1 uM; read-out: % inh @ 1 uM C. parvum
property.name: inhibition at 1 µM

compound | result
Cn1cc(-c2cc3cnc(Nc4ccccc4)cc3n2C)cn1 | 33 to 66%
CC(C)n1cc(C(=O)Nc2cc3[nH]c(-c4ccnc(NCC(F)(F)F)n4)cc3cn2)cn1 | 67 to 100%

Enquiry: Which value of inhibition at 1 µM has been reported for O=C(Nc1cc2[nH]c(-c3ccncc3)cc2cn1)C1CCOCC1 in the records?
Return: 0 to 33%

Enquiry: Param item = Cc1cc(-c2cc3cnc(NC(=O)OC4CCOC4)cc3[nH]2)ccn1 (stereo in doubt) ; retrieve measured inhibition at 1 µM.
Return: 0 to 33%

Enquiry: Item under review: Cn1c(-c2ccncc2)cc2cnc(Nc3cnn(C4CCOCC4)c3)cc21 . Reported inhibition at 1 µM?
Return: 0 to 33%

Enquiry: What value of inhibition at 1 µM has been reported for the following compound? Cn1cc(C(=O)Nc2cc3c(cn2)cc(-c2ccnc(NCCC(F)(F)F)n2)n3C)cn1
Return: 0 to 33%

Enquiry: May I ask what inhibition at 1 µM has been recorded for N#Cc1cc2cnc(Nc3cccc(-c4nc[nH]n4)c3)cc2[nH]1 ?
Return: 0 to 33%

Enquiry: Return reported inhibition at 1 µM; argument: Cc1cc(-c2cc3cnc(NC(=O)[C@H]4C[C@@H](O)C4)cc3[nH]2)ccn1
Return: 0 to 33%
